Before we begin, note that these IC50 values for Dual specificity protein kinase CLK1 (Homo sapiens, UniProt P49759) originate from several publications.

Enquiry: # value lookup — system Dual specificity protein kinase CLK1 (Homo sapiens, UniProt P49759), readout IC50, item COc1cc(S(=O)(=O)N2CCOCC2)ccc1Nc1nc(C2CC2)c2c(C(F)(F)F)c[nH]c2n1
Return: < 100 nM

Enquiry: # value lookup — system Dual specificity protein kinase CLK1 (Homo sapiens, UniProt P49759), readout IC50, item COCCNc1cc(Nc2ccc(S(=O)(=O)N3CCOCC3)cc2OC)nc2[nH]cc(Cl)c12
Return: 301 to 1000 nM

Enquiry: # value lookup — system Dual specificity protein kinase CLK1 (Homo sapiens, UniProt P49759), readout IC50, item CNc1cc(Nc2ccc(C(=O)N3CCOCC3)c3c2OCCO3)nc2[nH]cc(C#N)c12
Return: 301 to 1000 nM

Enquiry: # value lookup — system Dual specificity protein kinase CLK1 (Homo sapiens, UniProt P49759), readout IC50, item Cc1nn(C)c2c1/C=C/c1n[nH]c3ccc(cc13)-c1cnn(C)c1COCCO2
Return: 0.34 nM

Enquiry: # value lookup — system Dual specificity protein kinase CLK1 (Homo sapiens, UniProt P49759), readout IC50, item CSCn1ncc2c1O[C@@H](C)CN(C(C)C)Cc1c(c(C)nn1C)/C=C/c1n[nH]c3ccc-2cc13
Return: 0.39 nM

Enquiry: # value lookup — system Dual specificity protein kinase CLK1 (Homo sapiens, UniProt P49759), readout IC50, item CNc1nc(Nc2ccc(C(=O)N3CCOCC3)c3c2OCCO3)nc2[nH]ccc12
Return: 301 to 1000 nM

Enquiry: # value lookup — system Dual specificity protein kinase CLK1 (Homo sapiens, UniProt P49759), readout IC50, item O=C(c1ccc(Nc2nc(NC3CCCC3)c3c(C(F)(F)F)c[nH]c3n2)c2c1OCCO2)N1CCOCC1
Return: 101 to 300 nM

Enquiry: # value lookup — system Dual specificity protein kinase CLK1 (Homo sapiens, UniProt P49759), readout IC50, item CC(C)CNc1nc(Nc2ccc(C(=O)N3CCOCC3)c3c2OCC3)nc2[nH]cc(C(F)(F)F)c12
Return: 301 to 1000 nM

Enquiry: # value lookup — system Dual specificity protein kinase CLK1 (Homo sapiens, UniProt P49759), readout IC50, item CCCNc1nc(Nc2ccc(P(C)(C)=O)cc2OC)nc2[nH]cc(C#N)c12
Return: 101 to 300 nM

Enquiry: # value lookup — system Dual specificity protein kinase CLK1 (Homo sapiens, UniProt P49759), readout IC50, item COCCNc1nc(Nc2ccc(C(=O)N3C[C@@H]4C[C@H]3CO4)c3c2OCCO3)nc2[nH]cc(C(F)(F)F)c12
Return: < 100 nM

Enquiry: # value lookup — system Dual specificity protein kinase CLK1 (Homo sapiens, UniProt P49759), readout IC50, item CCNc1cc(Nc2ccc(C(=O)N3CCC(N4CCN(C5CC5)CC4)CC3)c3c2OCC3)nc2[nH]cc(C(F)(F)F)c12
Return: < 100 nM

Enquiry: # value lookup — system Dual specificity protein kinase CLK1 (Homo sapiens, UniProt P49759), readout IC50, item CCNc1cc(Nc2ccc(C(=O)N3CCOCC3)c3c2OCC3)nc2[nH]cc(C(F)(F)F)c12
Return: < 100 nM

Enquiry: # value lookup — system Dual specificity protein kinase CLK1 (Homo sapiens, UniProt P49759), readout IC50, item O=C(c1ccc(Nc2nc(N[C@H]3CCOC3)c3cc[nH]c3n2)c2c1OCCO2)N1CCOCC1
Return: 301 to 1000 nM

Enquiry: # value lookup — system Dual specificity protein kinase CLK1 (Homo sapiens, UniProt P49759), readout IC50, item COCC(C)(C)Nc1nc(Nc2ccc(S(=O)(=O)N3CCC(N4CCOCC4)CC3)cc2OC)nc2[nH]ccc12
Return: 101 to 300 nM

Enquiry: # value lookup — system Dual specificity protein kinase CLK1 (Homo sapiens, UniProt P49759), readout IC50, item CCCNc1nc(Nc2ccc(S(C)(=O)=O)cc2OC)nc2[nH]cc(C#N)c12
Return: 301 to 1000 nM

Enquiry: # value lookup — system Dual specificity protein kinase CLK1 (Homo sapiens, UniProt P49759), readout IC50, item C[C@H]1CN(C)Cc2c(c(OCC#N)nn2CCO)/C=C/c2n[nH]c3ccc(cc23)-c2cnn(C)c2O1
Return: 0.72 nM
